Data origin, for the record: patent US6914045B2

System: Staphylococcus sp.
Assay: in vitro antibacterial evaluation, MIC by broth dilution
Type: cell-based
Details: broth dilution, 18 hours at 35° C.
Numbered stars: 1 amine (or outer) side, 2 acyl side, 3 side chain; on linkers, the order of the positions; unused ones are H or OH. Square brackets hold non-standard residues; d marks the D form. Peptide text beside a SMILES is read from it. * marks the point of attachment. ξ: configuration not given here. X1 = N=C1NCC(C(O)C(N[*:1])C(=O)[*:2])N1C1OC(CO)C(O)C(O)C1O; ξEnduracididine(βξ-OH,4'ξ) = N=C1NCC(C(O)C(N)C(=O)O)N1; X2 = OCC1OC(OC2C(CO)OC(*)C(O)C2O)C(O)C(O)C1O
Property: MIC Coagulase Negative Staphylococcus (GC 4551)

Molecule: N=C1NCC(C(O)C2NC(=O)C(Cc3ccc(OC4OC(CO)C(OC5OC(CO)C(O)C(O)C5O)C(O)C4O)cc3)NC(=O)C(Cc3ccccc3)NC(=O)CNC(=O)C(CO)NC(=O)C(C(O)C3CNC(=N)N3C3OC(CO)C(O)C(O)C3O)NC2=O)N1 (stereo not drawn) [Example 282] (cyclo(GFY(X2)[ξEnduracididine(βξ-OH,4'ξ)][X1]S); configuration not given here)
System name: Staphylococcus sp.
Value observed: >128 µg/mL

Molecule: CC(c1ccccc1)C1NC(=O)CNC(=O)C(CO)NC(=O)C(CC2CNC(=N)N2C2OC(CO)C(O)C(O)C2O)NC(=O)C(CC2CNC(=N)N2)NC(=O)C(Cc2ccc(OC3OC(CO)C(OC4OC(CO)C(O)C(O)C4OCc4ccc(OCc5ccccc5)cc4)C(O)C3O)cc2)NC1=O (stereo not drawn) [Example 246c]
System name: Staphylococcus sp.
Value observed: >128 µg/mL

Molecule: CC(c1ccccc1)C1NC(=O)CNC(=O)C(CO)NC(=O)C(C(O)C2CN(c3nc4ccccc4s3)C(=N)N2C2OC(CO)C(O)C(O)C2O)NC(=O)C(C(O)C2CNC(=Nc3nc4ccccc4s3)N2)NC(=O)C(Cc2ccc(OC3OC(CO)C(OC4OC(CO)C(O)C(O)C4O)C(O)C3O)cc2)NC1=O (stereo not drawn)
System name: Staphylococcus sp.
Value observed: >64 µg/mL

* * *

Assay: clinical pathology (serum clinical chemistry) in mice
Format: in vivo
Settings: CD-1 mice, 20 mg/kg intravenously daily for 9 days, sera day 10
Consider the following compounds and their measured Clinical Chemistry (Day 10) % of Control, BUN readings.
Property: Clinical Chemistry (Day 10) % of Control, BUN

Compound: CC(c1ccccc1)C1NC(=O)CNC(=O)C(CO)NC(=O)C(C(O)C2CNC(=N)N2C2OC(CO)C(O)C(O)C2O)NC(=O)C(C(O)C2CNC(=N)N2)NC(=O)C(Cc2ccc(OC3OC(CO)C(OC4OC5COC(c6ccccc6)OC5C(O)C4O)C(O)C3O)cc2)NC1=O (centres unmarked)
Value observed: +203%

Compound: CC(c1ccccc1)C1NC(=O)CNC(=O)C(CO)NC(=O)C(C(O)C2CN(CCCCCCCCCCC(=O)O)C(=N)N2C2OC(CO)C(O)C(O)C2O)NC(=O)C(C(O)C2CNC(=N)N2)NC(=O)C(Cc2ccc(OC3OC(CO)C(OC4OC(CO)C(O)C(O)C4O)C(O)C3O)cc2)NC1=O (centres unmarked)
Value observed: +122%

* * *

Consider the following compounds and their measured MIC Streptococcus agalactiae (GC 4564) readings.
System: Streptococcus sp.
Experiment: in vitro antibacterial evaluation, MIC by broth dilution
Type: cell-based
Settings: strain GC 4564; broth dilution, 18 hours at 35° C.

Compound: CC(c1ccccc1)C1NC(=O)CNC(=O)C(CO)NC(=O)C(C(O)C2CNC(=N)N2C2OC(CO)C(O)C(O)C2O)NC(=O)C(C(O)C2CNC(=N)N2)NC(=O)C(Cc2ccc(OC3OC(CO)C(OC4OC5COC(c6ccc7c(c6)OCCO7)OC5C(O)C4O)C(O)C3O)cc2)NC1=O (centres unmarked)
MIC Streptococcus agalactiae (GC 4564) (µg/mL): 1
--
Compound: CC(C1CCCCC1)C1NC(=O)CNC(=O)C(CO)NC(=O)C(C(O)C2CNC(=N)N2C2OC(CO)C(O)C(O)C2O)NC(=O)C(C(O)C2CNC(=N)N2)NC(=O)C(CC2CCC(OC3OC(CO)C(OC4OC(CO)C(O)C(O)C4O)C(O)C3O)CC2)NC1=O (centres unmarked) [Example 53a]
MIC Streptococcus agalactiae (GC 4564) (µg/mL): 64
